Target: CMY-2 variant Q120K_N346Y (Klebsiella pneumoniae, UniProt Q48434, N366Y/Q140K)
Construct: all CMY-2 variant genes encoding the mature enzyme without a signal peptide were cloned into the protein expression plasmid vector pET-30b; made in house; host or cells: E. coli BL21 (DE3), pET-30b
Sequence (Q48434 21-381 Q140K/N366Y): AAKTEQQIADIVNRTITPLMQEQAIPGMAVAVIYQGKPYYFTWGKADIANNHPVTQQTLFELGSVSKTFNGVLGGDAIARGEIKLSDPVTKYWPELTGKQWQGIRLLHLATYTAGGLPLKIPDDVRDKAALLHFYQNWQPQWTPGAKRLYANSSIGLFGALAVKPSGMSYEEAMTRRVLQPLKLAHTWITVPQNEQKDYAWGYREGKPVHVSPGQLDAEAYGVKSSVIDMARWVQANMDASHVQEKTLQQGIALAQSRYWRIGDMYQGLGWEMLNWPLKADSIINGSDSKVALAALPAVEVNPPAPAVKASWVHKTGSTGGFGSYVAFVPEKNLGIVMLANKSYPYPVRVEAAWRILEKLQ
Assay: Steady-state hydrolysis kinetics
Format: biochemical, Escherichia coli
Conditions: substrate inhibition, Haldane equation
MEASUREMENT_TYPE: Ki (µM)
Please respond with the number in µM and leave the unit unwritten.

Please look up its Ki: `O=C(Cc1cccs1)N[C@@H]1C(=O)N2C(C(=O)O)=C(/C=C/c3ccc([N+](=O)[O-])cc3[N+](=O)[O-])CS[C@H]12`
14

Each recorded value in this set is attributed to paper PMC10865806.
